# tested.system: Histone-lysine N-methyltransferase EHMT2 (Homo sapiens) (UniProt Q96KQ7)
# Sequence (Q96KQ7 913-1193 limits assumed): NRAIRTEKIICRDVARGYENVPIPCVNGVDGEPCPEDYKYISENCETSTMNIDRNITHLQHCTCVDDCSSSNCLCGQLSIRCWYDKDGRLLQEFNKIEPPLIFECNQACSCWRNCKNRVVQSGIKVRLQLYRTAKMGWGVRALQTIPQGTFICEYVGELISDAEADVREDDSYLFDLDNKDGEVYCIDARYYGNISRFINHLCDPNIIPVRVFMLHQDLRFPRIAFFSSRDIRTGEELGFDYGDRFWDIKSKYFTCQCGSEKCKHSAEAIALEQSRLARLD
# assay.protocol: qHTS Assay for Inhibitors of Histone Lysine Methyltransferase G9a; also: nearly all actives have a fitted effect of over 75% in size
# condition.notes: G9a H3K9 monomethylation, AlphaScreen, 2 h; series mostly up to 59 µM
Among all 350,000 compounds or so, about 31,000 (8.9%) were called active. About 15% were inconclusive and are not listed. Calls follow the shape of the dose curve; as a rule, active = well fitted inhibition curve with a large enough effect; inconclusive = small, poorly fitted or top-dose-only effect; inactive = no such curve, though single readings can be large or run the other way. The list comes from a sample in which actives are over-represented; it also holds close analogues and randomly drawn compounds.
Can you answer with just one of these options? active, inactive

Examples with answers:
INSERT INTO measurements (compound, assigned_class) VALUES
  ('Cc1cccc(N2CCN(C(=O)c3ccc4c(c3)CCN4S(=O)(=O)c3ccccc3)CC2)c1C', 'inactive'),
  ('CCC(CC)C(=O)N1CCN(c2cccc(C)c2C)CC1', 'inactive'),
  ('CCn1c(C)c(C)c2cc(C(=O)N3CCN(c4cccc(C)c4C)CC3)ccc21', 'active');

Turning now to a further record.
What did the test return for CCOC(=O)c1sc(=S)n2c1[nH]c(=O)c1ccc(C(=O)OC)cc12 ?
active
